protocolDescription: In vitro hydrolysis of functionalized phenolics in pH 7.4 buffer at reflux
Type: physicochemical
recordedConditions: 500 mg compound in 50 mL pH 7.4 buffer, reflux temperature (100° C.), monitored by TLC
resultType: time in which the functionalized compound was hydrolyzed to the starting compound

molecule | endpointValue
COC(=O)COC(=O)c1ccc(OCC(=O)OC)cc1 | 33.0 h
COC(=O)COC(=O)c1ccccc1OCC(=O)OC | eight
COC(=O)COC(=O)COc1ccc(-c2coc3cc(OCC(=O)OCC(=O)OC)ccc3c2=O)cc1 | ten
COC(=O)COC(=O)COc1ccc(OCC(=O)OCC(=O)OC)cc1 | one
COC(=O)COC(=O)COc1ccc2cc(C(C)C(=O)OCC(=O)OC)ccc2c1 (stereo not shown) | four
COC(=O)COC(=O)COc1ccc(C(=O)OCC(=O)OC)cc1 | 26.5 h
COC(=O)COC(=O)COc1ccccc1C(=O)OCC(=O)OC | two
COC(=O)COC(=O)COc1ccc(N)cc1 | three
COC(=O)C(C)OC(=O)COc1ccc(OCC(=O)OC(C)C(=O)OC)cc1 (stereo not shown) | two
COC(=O)COC(=O)C(C)c1ccc2cc(OCC(=O)OC)ccc2c1 (stereo not shown) | four
